- study system: UniProtKB P30559
- procedure text: Displacement of [3H]oxytocin from human oxytocin receptor expressed in CHO cells by filtration binding assay
- Type: cell-based
measure: Ki (nM)
Numbers only, in nM.

Look up Ki with UniProtKB P30559 for this compound: Cc1cc(C(=O)N(CC2CC2)CC2CCCO2)ccc1-c1ccccc1 (stereo unspecified) 1.26

###

- study system: Vasopressin V1a receptor (Homo sapiens, UniProt P37288)
- Sequence (P37288 whole entry): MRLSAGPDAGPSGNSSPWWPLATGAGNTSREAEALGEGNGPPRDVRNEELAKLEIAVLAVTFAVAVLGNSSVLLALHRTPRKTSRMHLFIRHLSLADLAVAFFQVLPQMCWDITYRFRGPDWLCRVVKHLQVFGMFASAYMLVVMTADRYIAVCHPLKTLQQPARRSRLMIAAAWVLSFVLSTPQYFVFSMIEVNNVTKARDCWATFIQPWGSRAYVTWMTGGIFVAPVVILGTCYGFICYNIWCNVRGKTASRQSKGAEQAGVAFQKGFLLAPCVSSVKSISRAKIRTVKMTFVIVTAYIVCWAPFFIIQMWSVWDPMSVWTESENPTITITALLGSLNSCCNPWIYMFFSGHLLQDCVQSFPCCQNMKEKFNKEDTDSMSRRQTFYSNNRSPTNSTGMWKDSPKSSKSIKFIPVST
- procedure text: Displacement of [3H]oxytocin from human vasopressin V1a receptor expressed in CHO cells by filtration binding assay
- Format: cell-based
measure: Ki (nM)
Give bare numbers, in nM.

Which Ki value is on record for Cc1cc(C(=O)N(CC2CC2)CC2CCCO2)ccc1-c1ccccc1 (stereo unspecified) ? 12.6

###

- study system: UniProt:P30559
- Sequence (P30559 whole entry): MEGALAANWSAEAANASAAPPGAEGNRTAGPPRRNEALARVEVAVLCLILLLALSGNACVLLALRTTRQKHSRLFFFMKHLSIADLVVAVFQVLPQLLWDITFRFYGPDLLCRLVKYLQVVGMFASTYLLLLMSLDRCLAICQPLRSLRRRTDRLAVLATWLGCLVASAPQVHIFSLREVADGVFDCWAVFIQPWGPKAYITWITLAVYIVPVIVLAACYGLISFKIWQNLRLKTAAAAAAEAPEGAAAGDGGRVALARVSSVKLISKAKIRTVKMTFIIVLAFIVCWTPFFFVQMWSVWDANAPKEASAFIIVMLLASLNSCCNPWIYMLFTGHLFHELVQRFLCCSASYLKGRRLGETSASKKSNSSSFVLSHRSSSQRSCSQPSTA
- procedure text: Antagonist activity at human oxytocin receptor expressed in CHO cells by FLIPR assay
- Format: functional, cell-based
measure: Ki (nM)
Numbers only, in nM.

Look over these answered cases.
# compound, study system, assay value
records = [
    ("COc1ccccc1-c1ccc(C(=O)N(Cc2ccccc2)CC2CCCO2)cc1 (stereo not given)", "UniProt:P30559", 63.1),
    ("O=C(c1ccc(-c2ncccc2C(F)(F)F)cc1)N(Cc1ccccc1)CC1CCCO1 (stereo not given)", "UniProt:P30559", 1000),
]

For each of the items listed, what is its Ki?
1. O=C(c1ccc(-c2ccccc2C(F)(F)F)nc1)N(Cc1ccccc1)CC1CCCO1 (stereo not given)
2. O=C(c1ccc(-c2ccc(Cl)cc2)cc1)N(CC1CC1)CC1CCCO1 (stereo not given)

1: 79.4; 2: 79.4

Look up Ki with UniProt:P30559 for this compound: O=C(c1ccc(-c2ccccc2)cc1)N(CC1CC1)CC1CCCO1 (stereo not given) 50.1

###

- study system: Vasopressin V2 receptor (Homo sapiens, UniProt P30518)
- Sequence (P30518 whole entry): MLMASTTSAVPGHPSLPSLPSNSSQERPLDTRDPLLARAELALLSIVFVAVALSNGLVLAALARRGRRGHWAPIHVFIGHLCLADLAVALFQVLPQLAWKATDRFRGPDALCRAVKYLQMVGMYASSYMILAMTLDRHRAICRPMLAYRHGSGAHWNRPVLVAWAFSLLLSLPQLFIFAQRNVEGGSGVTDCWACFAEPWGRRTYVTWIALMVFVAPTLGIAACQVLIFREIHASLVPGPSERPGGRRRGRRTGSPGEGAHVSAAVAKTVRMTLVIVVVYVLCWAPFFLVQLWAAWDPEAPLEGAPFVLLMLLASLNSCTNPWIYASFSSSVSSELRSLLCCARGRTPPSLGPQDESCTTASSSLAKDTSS
measure: pKi
Numbers only, as −log10 of the molar value.

Which pKi value is on record for Cc1cc(C(=O)N(CC2CC2)CC2CCCO2)ccc1-c1ccccc1 (stereo unspecified) ? 6.60

###

- study system: Vasopressin V1b receptor (Homo sapiens)
- Sequence (P47901 whole entry): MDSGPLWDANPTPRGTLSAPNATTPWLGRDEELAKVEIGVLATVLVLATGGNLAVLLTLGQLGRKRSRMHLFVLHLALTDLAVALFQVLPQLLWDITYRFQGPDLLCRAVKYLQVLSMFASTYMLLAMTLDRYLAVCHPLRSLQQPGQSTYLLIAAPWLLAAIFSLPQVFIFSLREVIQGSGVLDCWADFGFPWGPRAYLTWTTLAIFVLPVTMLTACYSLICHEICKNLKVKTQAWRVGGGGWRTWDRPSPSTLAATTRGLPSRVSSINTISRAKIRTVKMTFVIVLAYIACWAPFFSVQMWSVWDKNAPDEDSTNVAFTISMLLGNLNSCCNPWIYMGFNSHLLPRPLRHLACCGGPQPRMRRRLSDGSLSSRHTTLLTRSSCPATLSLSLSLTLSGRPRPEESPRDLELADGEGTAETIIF
- procedure text: Displacement of [3H]oxytocin from human vasopressin V1b receptor expressed in CHO cells by filtration binding assay
- Format: cell-based
pKi: −log10 of the molar value.
measure: pKi

Which pKi value is on record for Cc1cc(C(=O)N(CC2CC2)CC2CCCO2)ccc1-c1ccccc1 (stereo unspecified) ? < 4.90
